Each recorded value in this set is attributed to patent EP0259014A2.

Tested on: Staphylococcus aureus Ap01
Experiment: MIC, serial dilution on Mueller Hinton agar
Format: cell-based
Details: Staphylococcus aureus Ap01, resistance mechanism ANT(4'); Mueller Hinton agar, 37°C, 18 hours; read-out: MIC.
reported.endpoint: MIC (µg/mL)
Report the figure in µg/mL without appending any unit label.

Record excerpt, results attached:
| smiles.str | result.units | MIC |
| --- | --- | --- |
| NC[C@H]1O[C@H](O[C@H]2[C@H](O)[C@@H](O[C@H]3O[C@H](CO)[C@@H](O)[C@H](N)[C@H]3O)[C@H](N)C[C@@H]2N)[C@H](N)[C@@H](O)[C@@H]1O | µg/mL | 25 |
| NC[C@H]1O[C@H](O[C@H]2[C@H](F)[C@@H](O[C@H]3O[C@H](CO)[C@@H](O)[C@H](N)[C@H]3O)[C@H](N)C[C@@H]2N)[C@H](N)[C@@H](O)[C@@H]1O | µg/mL | 25 |
| NC[C@H]1O[C@H](O[C@H]2[C@H](F)[C@@H](O[C@H]3O[C@H](CO)[C@@H](O)[C@H](N)[C@H]3O)[C@H](N)C[C@@H]2N)[C@H](N)C[C@@H]1O | µg/mL | 0.39 |
| NCC[C@H](O)C(=O)N[C@@H]1C[C@H](N)[C@@H](O[C@H]2O[C@H](CN)C[C@H](O)[C@H]2N)[C@H](F)[C@H]1O[C@H]1O[C@H](CO)[C@@H](O)[C@H](N)[C@H]1O | µg/mL | 0.39 |

IN: // query MIC value for entry "NCC[C@H](O)C(=O)N[C@@H]1C[C@H](N)[C@@H](O[C@H]2O[C@H](CN)[C@@H](O)[C@H](O)[C@H]2N)[C@H](F)[C@H]1O[C@H]1O[C@H](CO)[C@@H](O)[C@H](N)[C@H]1O"
OUT: 6.25
